relative viability values for the compounds below.
- Test system: 621-102 (TSC2-deficient)
- MEASUREMENT NOTES: relative viability vs DMSO; higher = less cytotoxic;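 further: immortalized renal angiomyolipoma cells stably carrying empty vector or TSC2, dosed in 384-well plates in DMEM, viability normalized to vehicle-treated wells within each plate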
- EXPERIMENTAL PARAMETERS: 0.01 µM; serum: 10% FBS; 72 h
REPORTED ENDPOINT: relative viability (%)

COMPOUND	REPORTED ENDPOINT	OBSERVED MEASUREMENT
CC(C)n1nc(-c2cc3cc(O)ccc3[nH]2)c2c(N)ncnc21 [PP242]	relative viability	103
O=C1Nc2ccccc2/C1=C1/Nc2ccccc2C1=O [Indirubin]	relative viability	91.5
O=C(c1ccc(/C=C/c2n[nH]c3ccccc23)cc1)N1CCNCC1 [KW 2449]	relative viability	93.7
COC(=O)C1=C(C)NC(C)=C(C(=O)OCCN2CCN(C(c3ccccc3)c3ccccc3)CC2)C1c1cccc([N+](=O)[O-])c1 (stereo not drawn) [Manidipine]	relative viability	99.9
CO[C@H]1/C=C\C=C(/C)C(=O)NC2=CC(=O)C(NCCN(C)C)=C(C[C@@H](C)C[C@H](OC)[C@H](O)[C@@H](C)/C=C(\C)[C@@H]1OC(N)=O)C2=O [17-DMAG]	relative viability	28.6
COc1cccc2cc(-c3nc([C@H]4CC[C@H](C(=O)O)CC4)n4ncnc(N)c34)[nH]c12 [OSI-027]	relative viability	91.5
Cc1ccc(C(=O)N(CCCN)[C@@H](c2oc3cc(Cl)ccc3c(=O)c2Cc2ccccc2)C(C)C)cc1	relative viability	75.9
CC(C)(C)c1cc(NC(=O)Nc2ccc(-c3cn4c(n3)sc3cc(OCCN5CCOCC5)ccc34)cc2)no1 [AC-220]	relative viability	87.3

---

- System: 621-102 (TSC2-deficient)
- MEASUREMENT NOTES: relative viability vs DMSO; higher = less cytotoxic
- EXPERIMENTAL PARAMETERS: 1 µM; serum: 10% FBS; 72 h
Counter-ions that a name gives are not always drawn.

MOLECULE	STUDY TARGET	relative viability
Cc1ccc(CN2CCNCC2)cc1NC(=O)CNc1ccc(F)c(F)c1	621-102 (TSC2-deficient)	88%
CC1(C)CC(=O)c2c(C(F)(F)F)nn(-c3ccc(C(N)=O)c(N[C@H]4CC[C@H](OC(=O)CN)CC4)c3)c2C1	621-102 (TSC2-deficient)	13.6%
Cn1cc(C2=C(c3ccc(Cl)cc3Cl)C(=O)NC2=O)c2ccccc21	621-102 (TSC2-deficient)	96.8%
CN(C)CCOC(c1ccccc1)c1ccccc1 [Diphenhydramine HCl]	621-102 (TSC2-deficient)	91.1%
OC(CN1CCN(c2cccc(Cl)c2)CC1)C(c1ccccc1)c1ccccc1 (centres undefined)	621-102 (TSC2-deficient)	102%
CC(C)NCC(O)c1ccc(O)c(O)c1 (centres undefined) [Isoprenaline HCl]	621-102 (TSC2-deficient)	94.6%
Nc1ccn([C@@H]2O[C@H](CO)[C@@H](O)[C@@H]2O)c(=O)n1	621-102 (TSC2-deficient)	74.5%
N#Cc1ccc(C(c2ccc(C#N)cc2)n2cncn2)cc1	621-102 (TSC2-deficient)	113%
COC(=O)Nc1nc2cc(Sc3ccccc3)ccc2[nH]1	621-102 (TSC2-deficient)	38.2%

---

- Tested on: 621-102 (TSC2-deficient)
- MEASUREMENT NOTES: relative viability vs DMSO; higher = less cytotoxic
- EXPERIMENTAL PARAMETERS: 0.0001 µM; serum: 10% FBS; 72 h
Counter-ions that a name gives are not always drawn.
REPORTED ENDPOINT: relative viability (%)

COMPOUND	REPORTED ENDPOINT	OBSERVED MEASUREMENT
CC[C@]12C=CCN3CC[C@@]4(c5cc([C@@]6(C(=O)OC)C[C@@H]7C[C@@H](C(C)(F)F)CN(Cc8c6[nH]c6ccccc86)C7)c(OC)cc5N(C)[C@H]4[C@@](O)(C(=O)OC)[C@@H]1OC(C)=O)[C@@H]32 [Vinflunine Tartrate]	relative viability	91.3
CCOc1cc2ncc(C#N)c(Nc3ccc(OCc4ccccn4)c(Cl)c3)c2cc1NC(=O)/C=C/CN(C)C [Neratinib]	relative viability	110
CC(C)NCC(O)c1ccc(NS(C)(=O)=O)cc1 (stereo not drawn) [Sotalol HCl]	relative viability	79.7
CC1(C)C(=O)N(CCN2CCC(C(=O)c3ccc(F)cc3)CC2)c2ccccc21	relative viability	103
CN(C)CC/C=C1/c2ccccc2COc2ccc(CC(=O)O)cc21 [Olopatadine HCl (Opatano)]	relative viability	114
CN(C)C1CCN(C(=O)c2ccc(NC(=O)Nc3ccc(-c4nc(N5CCOCC5)nc(N5CCOCC5)n4)cc3)cc2)CC1 [PKI-587]	relative viability	52.3
NC(=O)c1cccc(-c2cccc(OC(=O)NC3CCCCC3)c2)c1 [URB597]	relative viability	105
Cc1ccc(NC(=O)c2cccc(N(C)C)c2)cc1NC(=O)c1ccc(O)cc1	relative viability	90.2
C=CC(=O)Nc1cccc(Sc2nc(Nc3ccc(N4CCN(C)CC4)cc3)ncc2Cl)c1 [WZ8040]	relative viability	98.7
Nc1ccc(S(N)(=O)=O)cc1 [Sulfanilamide]	relative viability	94.3
CCC(C)n1ncn(-c2ccc(N3CCN(c4ccc(OCC5COC(Cn6cncn6)(c6ccc(Cl)cc6Cl)O5)cc4)CC3)cc2)c1=O (stereo not drawn) [Itraconazole (Sporanox)]	relative viability	108
O=C(Nc1cccc(Cl)c1)Nc1ncc(CCNc2ncnc3ccsc23)s1 [SNS-314 Mesylate]	relative viability	107
CC(C[N+](C)(C)C)OC(N)=O (stereo not drawn) [Bethanechol chloride]	relative viability	103
CCC[C@H](Nc1nc(-c2ccc(NC(=O)NCC)c(OC)c2)ncc1C)c1cccnc1 [CYT997]	relative viability	87.8
N[C@@H](CC(=O)N1CCn2c(nnc2C(F)(F)F)C1)Cc1cc(F)c(F)cc1F [Sitagliptin phosphate]	relative viability	98.7
COc1ccc([C@]2(C#N)CC[C@@H](C(=O)O)CC2)cc1OC1CCCC1	relative viability	96.5
CC(C)c1nc(CN(C)C(=O)N[C@H](C(=O)N[C@@H](Cc2ccccc2)C[C@H](O)[C@H](Cc2ccccc2)NC(=O)OCc2cncs2)C(C)C)cs1 [Ritonavir]	relative viability	106
Cc1cnc(Nc2ccc(N3CCN(C)CC3)cc2)nc1Nc1cccc(S(=O)(=O)NC(C)(C)C)c1	relative viability	116

---

- Test system: 621-103 (TSC2-rescued)
- MEASUREMENT NOTES: relative viability vs DMSO; higher = less cytotoxic
- EXPERIMENTAL PARAMETERS: 1 µM; serum: 10% FBS; 72 h
Where a name gives a salt, the structure may show the parent alone.
REPORTED ENDPOINT: relative viability (%)

COMPOUND	STUDY TARGET	OBSERVED MEASUREMENT
CN(C)CC/C=C1/c2ccccc2COc2ccc(CC(=O)O)cc21 [Olopatadine HCl (Opatano)]	621-103 (TSC2-rescued)	98.5
CC(C)C(=O)Oc1ccc(CO)cc1[C@H](CCN(C(C)C)C(C)C)c1ccccc1 [Fesoterodine fumarate (Toviaz)]	621-103 (TSC2-rescued)	101
Cc1ccc(CN2CCNCC2)cc1NC(=O)CNc1ccc(F)c(F)c1	621-103 (TSC2-rescued)	95.4
CCN1CCN(Cc2ccc(-c3cc4c(N[C@H](C)c5ccccc5)ncnc4[nH]3)cc2)CC1	621-103 (TSC2-rescued)	100
O=c1ncn2nc(Sc3ccc(F)cc3F)ccc2c1-c1c(Cl)cccc1Cl	621-103 (TSC2-rescued)	99.4
CN(C)Cc1cccc(N=C(c2ccccc2)c2c(O)[nH]c3cc(C(=O)N(C)C)ccc23)c1	621-103 (TSC2-rescued)	91.7
COc1ncc(-c2ccc3nccc(-c4ccnnc4)c3c2)cc1NS(=O)(=O)c1ccc(F)cc1F	621-103 (TSC2-rescued)	47.6
CNCCCC12CCC(c3ccccc31)c1ccccc12 [Maprotiline HCl]	621-103 (TSC2-rescued)	87.6
CN(C)C(=O)Oc1cccc([N+](C)(C)C)c1 [Neostigmine bromide (Prostigmin)]	621-103 (TSC2-rescued)	93.8
NC(=O)Nc1cc(-c2cccc(F)c2)sc1C(=O)N[C@H]1CCCNC1	621-103 (TSC2-rescued)	22.3
COCC(=O)NC/C=C/c1ccc2ncnc(Nc3ccc(Oc4ccc(C)nc4)c(C)c3)c2c1	621-103 (TSC2-rescued)	104
NCCCC(O)(P(=O)(O)O)P(=O)(O)O [Alendronate Sodium]	621-103 (TSC2-rescued)	104
CCN[C@H]1C[C@H](C)S(=O)(=O)c2sc(S(N)(=O)=O)cc21 [Dorzolamide HCl]	621-103 (TSC2-rescued)	102
CN(C)CC[C@H](CSc1ccccc1)Nc1ccc(S(=O)(=O)NC(=O)c2ccc(N3CCN(Cc4ccccc4-c4ccc(Cl)cc4)CC3)cc2)cc1[N+](=O)[O-]	621-103 (TSC2-rescued)	92
C[C@]1(c2nc3c(C(N)=O)cccc3[nH]2)CCCN1	621-103 (TSC2-rescued)	105
O=C(c1ccc(/C=C/c2n[nH]c3ccccc23)cc1)N1CCNCC1	621-103 (TSC2-rescued)	96.8
CS(=O)(=O)N1CCN(Cc2cc3nc(-c4cccc5[nH]ncc45)nc(N4CCOCC4)c3s2)CC1	621-103 (TSC2-rescued)	83.3
Cc1ncc([N+](=O)[O-])n1CC(C)O (stereo not drawn)	621-103 (TSC2-rescued)	100
N#C/C(=C\c1ccc(O)c(O)c1)C(=O)NCc1ccccc1	621-103 (TSC2-rescued)	107
CC(C)[C@H](C(=O)Nc1ccc(C(=O)NO)cc1)c1ccccc1	621-103 (TSC2-rescued)	41.1
CN(C)Cc1ccc(-c2nc3cccc4c3n2CCNC4=O)cc1	621-103 (TSC2-rescued)	103
CN1C(C(=O)Nc2ccccn2)=C(O)c2ccccc2S1(=O)=O	621-103 (TSC2-rescued)	112
NC(=O)[C@@H](CCC(F)(F)F)N(Cc1ccc(-c2ncon2)cc1F)S(=O)(=O)c1ccc(Cl)cc1	621-103 (TSC2-rescued)	104
CC(C)C[C@H](NC(=O)[C@H](Cc1ccccc1)NC(=O)c1cnccn1)B(O)O	621-103 (TSC2-rescued)	1.14
O=C1NC(=O)/C(=C/c2ccc(-c3ccc(F)cc3O)o2)S1	621-103 (TSC2-rescued)	88.2
CC(NC(C)(C)C)C(=O)c1cccc(Cl)c1 (stereo not drawn)	621-103 (TSC2-rescued)	102
CO[C@@H](C(=O)N1Cc2[nH]nc(NC(=O)c3ccc(N4CCN(C)CC4)cc3)c2C1)c1ccccc1	621-103 (TSC2-rescued)	62.3
O=C(NC[C@H](O)CO)c1ccncc1Nc1ccc(I)cc1F	621-103 (TSC2-rescued)	99.9
COc1ccnc2[nH]cc(C(=O)C(=O)N3CCN(C(=O)c4ccccc4)C[C@H]3C)c12	621-103 (TSC2-rescued)	106
CCCNC(=O)Nc1ccc(Oc2ncnc3cc(OC)c(OC)cc23)cc1Cl	621-103 (TSC2-rescued)	90.3
COc1cc(Nc2c(C#N)cnc3cc(OCCCN4CCN(C)CC4)c(OC)cc23)c(Cl)cc1Cl [Bosutinib (SKI-606)]	621-103 (TSC2-rescued)	69.5
c1ccc2c(CCNc3ccc(Nc4ccncc4)cc3)c[nH]c2c1	621-103 (TSC2-rescued)	105
CC(C)C[C@@H](C(=O)N[C@H](C(=O)OC1CCCC1)c1ccccc1)[C@H](O)C(=O)NO	621-103 (TSC2-rescued)	104
